# Lookup of reported Max signal with GIP (RLU × 10^−5) keyed by entry
Molecular target: T1, GIP Receptor (Homo sapiens, UniProt P48546)
T1 construct: host or cells: HEK293T
T1 sequence (P48546 22-466): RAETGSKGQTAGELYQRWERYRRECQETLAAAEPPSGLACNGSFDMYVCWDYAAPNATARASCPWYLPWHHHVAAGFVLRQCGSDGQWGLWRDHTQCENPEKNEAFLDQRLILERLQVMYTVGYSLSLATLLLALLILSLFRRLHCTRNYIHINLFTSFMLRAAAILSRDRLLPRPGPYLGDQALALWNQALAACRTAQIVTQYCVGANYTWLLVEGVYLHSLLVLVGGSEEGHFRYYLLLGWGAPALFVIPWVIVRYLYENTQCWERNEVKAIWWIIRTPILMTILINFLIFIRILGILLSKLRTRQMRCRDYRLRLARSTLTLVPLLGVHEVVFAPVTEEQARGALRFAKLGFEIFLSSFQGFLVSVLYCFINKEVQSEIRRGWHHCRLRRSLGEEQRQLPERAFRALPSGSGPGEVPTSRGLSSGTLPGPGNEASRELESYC
Experiment: GIP receptor-mediated bioluminescence in HEK293T cells with chimeric promiscuous G protein (FIG. 5, Table II)
Type: cell-based
Details: HEK293T cells, GIP Receptor + promiscuous G protein
recordedMetric: Max signal with GIP (RLU × 10^−5)

[[record]]
molecule = "Mt-clytin K168D: Mitochondrial K168D modified Clytin, SEQ ID NO:10 (protein) MSVLTPLLLRGLTGSARRLPVPRAKIHSLPPEGKLRPNFDNPKWVNRHKFMFNFLDINGDGKITLDEIVSKASDDICAKLGATPEQTKRHQDAVEAFFKKIGMDYGKEVEFPAFVDGWKELANYDLKLWSQNKKSLIRDWGEAVFDIFDKDGSGSISLDEWKAYGRISGICSSDEDAEKTFKHCDLDNSGDLDVDEMTRQHLGFWYTLDPNADGLYGNFVP"
assayvalue = 7.90

[[record]]
molecule = "Mt-clytin K168T: Mitochondrial K168T modified Clytin, SEQ ID NO:24 (protein) MSVLTPLLLRGLTGSARRLPVPRAKIHSLPPEGKLRPNFDNPKWVNRHKFMFNFLDINGDGKITLDEIVSKASDDICAKLGATPEQTKRHQDAVEAFFKKIGMDYGKEVEFPAFVDGWKELANYDLKLWSQNKKSLIRDWGEAVFDIFDKDGSGSISLDEWKAYGRISGICSSDEDAEKTFKHCDLDNSGTLDVDEMTRQHLGFWYTLDPNADGLYGNFVP"
assayvalue = 4.26

[[record]]
molecule = "Mt-clytin K168R: Mitochondrial K168R modified Clytin, SEQ ID NO:30 (protein) MSVLTPLLLRGLTGSARRLPVPRAKIHSLPPEGKLRPNFDNPKWVNRHKFMFNFLDINGDGKITLDEIVSKASDDICAKLGATPEQTKRHQDAVEAFFKKIGMDYGKEVEFPAFVDGWKELANYDLKLWSQNKKSLIRDWGEAVFDIFDKDGSGSISLDEWKAYGRISGICSSDEDAEKTFKHCDLDNSGRLDVDEMTRQHLGFWYTLDPNADGLYGNFVP"
assayvalue = 1.89

[[record]]
molecule = "Mt-clytin wt: Mitochondrial Wild-type Clytin (mt-Clytin), SEQ ID NO:5, with COX8 mitochondrial leader sequence (protein, listed as Clytia gregaria) MSVLTPLLLRGLTGSARRLPVPRAKIHSLPPEGKLRPNFDNPKWVNRHKFMFNFLDINGDGKITLDEIVSKASDDICAKLGATPEQTKRHQDAVEAFFKKIGMDYGKEVEFPAFVDGWKELANYDLKLWSQNKKSLIRDWGEAVFDIFDKDGSGSISLDEWKAYGRISGICSSDEDAEKTFKHCDLDNSGKLDVDEMTRQHLGFWYTLDPNADGLYGNFVP"
assayvalue = 3.14

